Exercise: for every item that follows, state its recorded inhibition at 2 µM.
Test system: human hepatoma Huh-7 cell line harboring a HCV replicon
Test Description: HCV replicon assay (inhibition of viral replication, luciferase readout)
Assay type: cell-based
Conditions Used: Hepatitis C virus, 72 h, Huh-7 HCV replicon cells, 3 days incubation
One number for each entry, in %.

Field: example entries. Status: answers known.
1. CN(C)c1cc(O[C@H]2CC[C@H](N(c3cc(C#CC(C)(C)C)sc3C(=O)O)C(=O)[C@H]3CC[C@H](C)CC3)CC2)ncn1 ... 99.9
2. CC(C)(C)C#Cc1cc(N(C(=O)[C@H]2CC[C@H](C)CC2)C2CCN(S(=O)(=O)c3nnc[nH]3)CC2)c(C(=O)O)s1 ... 96.4
3. CC(C)(C)C#Cc1cc(N(C(=O)[C@H]2CC[C@H](C)CC2)C2CCN(S(=O)(=O)c3cccs3)CC2)c(C(=O)O)s1 ... 99.8
4. CN(C)c1ccc(O[C@H]2CC[C@H](N(c3cc(C#CC(C)(C)C)sc3C(=O)O)C(=O)[C@H]3CC[C@H](C)CC3)CC2)nn1 ... 99.9
5. CC(C)(C)C#Cc1cc(N(C(=O)[C@H]2CC[C@H](C)CC2)C2CCN(S(=O)(=O)c3cccnc3)CC2)c(C(=O)O)s1 ... 100

For each listed entry, give its inhibition at 2 µM.
1. Cn1nnnc1S[C@H]1CC[C@@H](N(c2cc(C#CC(C)(C)C)sc2C(=O)O)C(=O)[C@H]2CC[C@H](C)CC2)CC1
2. CC(C)(C)C#Cc1cc(N(C(=O)[C@H]2CC[C@H](C)CC2)[C@H]2CC[C@@H](Oc3ncccn3)CC2)c(C(=O)O)s1
3. CN(C)C1CCN(C(=O)c2ccnc(O[C@H]3CC[C@H](N(c4cc(C#CC(C)(C)C)sc4C(=O)O)C(=O)[C@H]4CC[C@H](C)CC4)CC3)c2)C1 (stereo partly drawn)
4. CC(C)(C)C#Cc1cc(N(C(=O)[C@H]2CC[C@H](C)CC2)[C@H]2CC[C@H](Sc3cccc[n+]3[O-])CC2)c(C(=O)O)s1
5. CC(C)(C)C#Cc1cc(N(C(=O)[C@H]2CC[C@H](C)CC2)[C@H]2CC[C@@H](Sc3nccs3)CC2)c(C(=O)O)s1
6. CC(C)(C)C#Cc1cc(N(C(=O)[C@H]2CC[C@H](C)CC2)[C@H]2CC[C@H](Oc3nc(CN4CCCC4)ns3)CC2)c(C(=O)O)s1
7. Cn1nnnc1S(=O)(=O)[C@H]1CC[C@H](N(c2cc(C#CC(C)(C)C)sc2C(=O)O)C(=O)[C@H]2CC[C@H](C)CC2)CC1

98.7
98.3
100
98.5
98.9
99.9
100
